# Tested on: DU-145 prostate
# test details: NCI-60 one-dose screen, 48 h (100 = growth as untreated, 0 = no growth, -100 = all killed)
# condition set: 10 µM
# Protocol: Cells are grown in 96 well plates and exposed to the test compound for 48 hours. Compounds are tested at a single concentration, which is 10^-5 M for most compounds. The reported endpoint is percent growth (GI% or GIPRCNT), where numbers from 0 - 100% represent growth inhibition, and numbers from -100% - 0 represent cell death. For example, a value of 40 represents 60% growth inhibition. A value of 0 means no net growth occurred over the course of the experiment. […]
About 83,000 compounds went through this panel and 20% of them were active in at least one assay; those are over-represented in the sample as a whole.
readout name: growth (%)
Value expressed in %; do not type the unit.

# example entries with known answers
Entry COc1cc(Cl)cc(-c2nn(-c3cccc(NC(=O)c4ccc(Cl)c(Cl)c4)c3)cc2-c2ccncc2)c1 : reported growth = ?
88.5

Entry COc1ccc(-c2nc3ncccn3c2-c2nnc(-c3ccsc3C)o2)cc1 : reported growth = ?
88.3

---
Entry N=C(N)c1ccc(-c2ccc(-c3ccco3)o2)cc1 : reported growth = ?
88.2

Entry COc1ccc(-c2ccc(-c3ccc(C(=N)N)cn3)o2)cc1 : reported growth = ?
88.6

Entry COc1ccc(-c2nn(-c3cccc(NC(=O)c4ccc(Cl)c(Cl)c4)c3)cc2-c2ccncc2)cc1Cl : reported growth = ?
92.1

----------
Listed compounds paired with reported growth
# System: BT-549 breast
# test details: NCI-60 one-dose screen, 48 h (100 = growth as untreated, 0 = no growth, -100 = all killed)
# condition set: 10 µM
This is part of a sample that, as a whole, favours compounds with a hit. Of some 83,000 tested, about 20% had one in any assay.
Value expressed in %; do not type the unit.

# example entries with known answers
Entry COc1cc(NC(=O)CSc2nc3ccccc3c(=O)n2CCc2ccccc2)cc(OC)c1OC : reported growth = ?
-4.65

Entry O=C(CC(c1ccccc1)N1CCOCC1)c1ccccc1 (centres undefined) : reported growth = ?
89.8

Entry COc1cc(C(=C2O[C@@H]([C@H]3COC(C)(C)O3)[C@H]3OC(C)(C)O[C@@H]23)c2cc(OC)c(OC)c(OC)c2)cc(OC)c1OC : reported growth = ?
111

---
Entry COc1ccc2c(c1)O/C(=C\c1ncc([N+](=O)[O-])n1C)C2=O : reported growth = ?
-36.8

----------
# System: KM12 colon
# test details: NCI-60 one-dose screen, 48 h (100 = growth as untreated, 0 = no growth, -100 = all killed)
# condition set: 10 µM
# Protocol: Growth inhibition of the KM12 human tumor cell line is measured as a screen for anti-cancer activity. Cells are grown in 96 well plates and exposed to the test compound for 48 hours. Compounds are tested at a single concentration, which is 10^-5 M for most compounds. The reported endpoint is percent growth (GI% or GIPRCNT), where numbers from 0 - 100% represent growth inhibition, and numbers from -100% - 0 represent cell death. For example, a value of 40 represents 60% growth inhibition. […]
About 83,000 compounds went through this panel and 20% of them were active in at least one assay; those are over-represented in the sample as a whole.
Listed compounds paired with reported growth
Value expressed in %; do not type the unit.

# example entries with known answers
Entry CCCCCC(=O)c1ccc(OCCCN2CCN(C(=O)OCC)CC2)cc1 : reported growth = ?
94.4

Entry Cc1cc(N(CCCNc2ccnc3cc(Cl)ccc23)Cc2ccc3c(c2)OCO3)nc(N2CCOCC2)n1 : reported growth = ?
40.6

Entry Cn1c([N+](=O)[O-])cnc1/C=C1\Oc2cc(Cl)ccc2C1=O : reported growth = ?
1.65

---
Entry COc1ccc(-c2nc3sc(-c4ccccc4)c(-c4ccccc4)n3c2/C=C/C(=O)c2ccccn2)cc1 : reported growth = ?
83.6
